The reported measurements were obtained from ChEMBL document CHEMBL6109135.

Experiment: Cmax in male Wistar rat brain at 10 mg/kg, ip measured 24 hrs post dose by LC-MS/MS analysis
Type: ADME, organism-based

{"compound.structure.string": "O=C(Nc1ccc(-c2nc(-c3ccc(Cl)cc3)no2)cc1)[C@@H]1CC(=O)N(C[C@@H]2CCCNC2)C1", "Cmax (ng/mL)": 185}

====

Assay: AUClast in female Wistar rat brain at 10 mg/kg, ip measured 24 hrs post dose by LC-MS/MS analysis
Format: ADME, organism-based

{"compound.structure.string": "O=C(Nc1ccc(-c2nc(-c3ccc(Cl)cc3)no2)cc1)[C@@H]1CC(=O)N(C[C@@H]2CCCNC2)C1", "AUC(0-t) at 24 h [ng·h/mL]": 1930}
